molecular target: T1, Suc-AAPE-pNA
T1 chain: AAPE
measured quantity: Glutamyl endopeptidase ratio (GR)
Form field (numeric): enter value without unit.

Exercise: Assign Glutamyl endopeptidase ratio (GR) to the following record: Thermostable alkaline protease BH0855 from Bacillus halodurans (protein) QTVPWGISFINTQQAHNRGIFGNGARVAVLDTGIASHPDLRIAGGASFISSEPSYHDNNGHGTHVAGTIAALNNSIGVLGVAPSADLYAVKVLDRNGSGSLASVAQGIEWAINNNMHIINMSLGSTSGSSTLELAVNRANNAGILLVGAAGNTGRQGVNYPARYSGVMAVAAVDQNGQRASFSTYGPEIEISAPGVNVNSTYTGNRYVSLSGTSMATPHVAGVAALVKSRYPSYTNNQIRQRINQTATYLGSPSLYGNGLVHAGRATQ
Solution: 0.008

Exercise: Assign Glutamyl endopeptidase ratio (GR) to the following record: Subtilisin Carlsberg from Bacillus licheniformis (protein) AQTVPYGIPLIKADKVQAQGFKGANVKVAVLDTGIQASHPDLNVVGGASFVAGEAYNTDGNGHGTHVAGTVAALDNTTGVLGVAPSVSLYAVKVLNSSGSGSYSGIVSGIEWATTNGMDVINMSLGGASGSTAMKQAVDNAYARGVVVVAAAGNSGSSGNTNTIGYPAKYDSVIAVGAVDSNSNRASFSSVGAELEVMAPGAGVYSTYPTNTYATLNGTSMASPHVAGAAALILSKHPNLSASQVRNRLSSTATYLGSSFYYGKGLINVEAAAQ
Solution: 0.003
